meta.source: patent US11957687B2

# IC50 measurements, system: HSD17B2 (Homo sapiens (Human), UniProt P37059)
# Sequence (P37059 other isoform, or with tags, fused parts or gaps): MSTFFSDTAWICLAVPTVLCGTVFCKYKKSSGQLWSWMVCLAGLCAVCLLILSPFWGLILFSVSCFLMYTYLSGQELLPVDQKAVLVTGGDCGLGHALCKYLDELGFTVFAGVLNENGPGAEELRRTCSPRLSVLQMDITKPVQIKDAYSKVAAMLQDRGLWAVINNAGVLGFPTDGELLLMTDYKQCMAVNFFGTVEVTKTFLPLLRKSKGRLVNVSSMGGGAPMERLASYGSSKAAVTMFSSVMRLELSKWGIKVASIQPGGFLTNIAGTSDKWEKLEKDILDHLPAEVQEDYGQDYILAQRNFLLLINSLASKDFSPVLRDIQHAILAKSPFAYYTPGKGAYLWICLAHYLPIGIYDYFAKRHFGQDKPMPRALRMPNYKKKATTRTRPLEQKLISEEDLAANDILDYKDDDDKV
result type: IC50 (µM)

# molecule, u, value observed
records = [
    ("C=Cc1cc(C(=O)NC2c3ccc(C)cc3Oc3cc(C)ccc32)c(=O)[nH]c1C(F)(F)F [Compound 182]", "µM", 10.3),
    ("Cc1ccc2c(c1)OC1CCCCC1C2NC(=O)c1ccc(C(F)(F)F)[nH]c1=O (stereo not shown) [Compound 409]", "µM", 29.7),
    ("O=C(NC(c1ccccc1)c1ccc(O)cc1)c1ccc(C(F)(F)F)[nH]c1=O (stereo not shown) [Compound 19]", "µM", 33.6),
    ("Cc1ccc2c(c1)Oc1cc(C)ccc1C2NC(=O)c1cc(C2CCCCC2)c(C(F)(F)F)[nH]c1=O [Compound 460]", "µM", 25),
    ("CSc1cccc(C(NC(=O)c2ccc(C(F)(F)F)[nH]c2=O)c2ccc(C)cc2)c1 (stereo not shown) [Compound 445]", "µM", 42.9),
]

a = N#Cc1ccc2c(c1)Oc1ccccc1C2NC(=O)c1ccc(C(F)(F)F)[nH]c1=O (stereo not shown) [Compound 528]
b = Cc1ccc2c(c1)Oc1cc(Cl)ccc1C2NC(=O)c1ccc(C(F)(F)F)[nH]c1=O (stereo not shown) [Compound 138]
c = Cc1ccc2c(c1)Sc1cc(C)ccc1C2NC(=O)c1cc(-c2ccccn2)c(C(F)(F)F)[nH]c1=O [Compound 307]
# rank by IC50, ascending (min first) Sort and list the labels as requested.
c, b, a

A = Cc1ccccc1C(NC(=O)c1ccc(C(F)(F)F)[nH]c1=O)c1ccccc1 (stereo not shown) [Compound 5]
B = CCCC1Cc2cc(C)ccc2C(NC(=O)c2ccc(C(F)(F)F)[nH]c2=O)C1 (stereo not shown) [Compound 387]
C = Cc1ccc2c(c1)Oc1cc(C)ccc1C2NC(=O)c1cc(-c2cnccn2)c(C(F)(F)F)[nH]c1=O [Compound 508]
D = O=C(NC1c2ccccc2Oc2cc(Cl)ccc21)c1ccc(C(F)(F)F)[nH]c1=O (stereo not shown) [Compound 15A]
E = COc1ccc2c(c1)Sc1cc(OC)ccc1C2NC(=O)c1ccc(C(F)F)[nH]c1=O [Compound 274]
Sequence the entries by IC50, beginning with the highest number. Sort and list the labels as requested.
C, B, A, E, D
(C: 45.8 µM, B: 27.7 µM, A: 15.3 µM, E: 9.16 µM, D: 6.33 µM)
